Quick reference for concentration at 1.5 h among some compounds
Test: Drug level in Swiss mouse brain at 10 mg/kg, sc after 1.5 hrs
Format: ADME, organism-based
Design: dose 10 mg/kg, route subcutaneous
Settings: read-out: Drug uptake
The reply should be a number in ng/g, with the unit left off.

item-smiles: CCCCn1ccc(-c2ccc(Oc3cccnc3C)cc2)c(C#N)c1=O
meas-value: 100
//
item-smiles: Cc1ccc(Oc2ccc(-c3ccn(CC4CC4)c(=O)c3C#N)cc2Cl)c(C)n1
meas-value: 240

[in] I have this compound here, `CCCCn1ccc(-c2ccc(Oc3ccnc(C)c3)cc2)c(C#N)c1=O` , and I need its recorded concentration at 1.5 h.
[out] 592

[in] I have this compound here, `CCCCn1ccc(-c2ccc(Oc3ccnc(C)c3)c(F)c2)c(C#N)c1=O` , and I need its recorded concentration at 1.5 h.
[out] 1020

[in] I have this compound here, `CCCCn1ccc(-c2ccc(Oc3ccc(C)nc3C)c(Cl)c2)c(C#N)c1=O` , and I need its recorded concentration at 1.5 h.
[out] 281
